test system: HCT116; test: Anti-proliferation MTT assay; format: cell-based; conditions: Homo sapiens, HCT-116, 48 h
pIC50: −log10 of the molar value.
measured-property: pIC50

{"molecule": "COc1ccccc1N1CCN(CC(O)COCCOc2ccc(Br)cc2)CC1 (centres unmarked)", "measured-property": "pIC50", "value-observed": 5.44}
{"molecule": "CN(C)S(=O)(=O)N1CCN(CC(O)COc2ccc3cc(Br)ccc3c2)CC1 (centres unmarked)", "measured-property": "pIC50", "value-observed": 5.33}

###

tested on: SK-BR-3; assay: Anti-proliferation MTT assay; format: cell-based; conditions: 48 h
pIC50: −log10 of the molar value.
measured-property: pIC50

{"smiles-structure": "CO[C@H]1/C=C\\C=C(/C)C(=O)NC2=CC(=O)C(NCCN(C)C)=C(C[C@@H](C)C[C@H](OC)[C@H](O)[C@@H](C)/C=C(\\C)[C@@H]1OC(N)=O)C2=O", "value-observed": 5.92}
